# EC50 per entry
molecular target: human TREM2 (Homo sapiens, UniProt Q9NZC2); construct: expressed in transfected cells; host or cells: HEK293T; experiment: TREM2 agonist potency by cellular phosphorylation of Syk (AlphaLisa) in HEK293T-hTREM2 cells; type: cell-based; conditions: HEK293 cells expressing human TREM2 and DAP12, Table D
Sequence (Q9NZC2 19-230): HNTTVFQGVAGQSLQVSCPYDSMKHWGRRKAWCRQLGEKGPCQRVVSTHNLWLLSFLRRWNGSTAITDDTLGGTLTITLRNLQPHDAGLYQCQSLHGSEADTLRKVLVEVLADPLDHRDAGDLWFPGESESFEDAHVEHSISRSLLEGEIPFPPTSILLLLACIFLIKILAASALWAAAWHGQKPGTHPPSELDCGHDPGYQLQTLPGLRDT
Sequence (O43914 22-113 partner): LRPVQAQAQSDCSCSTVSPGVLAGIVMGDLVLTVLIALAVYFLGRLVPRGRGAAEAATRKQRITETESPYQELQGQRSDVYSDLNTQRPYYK
Quantity: EC50

[2H][C@@]1(c2cnn(C3CC3)c2)C[C@H](c2nc(-c3ccc(F)cc3F)c3nc(C)c(C)nc3n2)CCO1 (single isomer, unassigned)	3000 to 100000 nM
Cc1nc2nc([C@H]3CCO[C@@H](c4cnn(CCF)c4)C3)nc(-c3ccc(F)cc3F)c2nc1C	< 50 nM
Cc1nc2nc(C3CCOC(c4cn[nH]c4)C3)nc(-c3ccc(F)cc3F)c2nc1C (centres unmarked)	50 to 500 nM
Cc1nc2nc([C@@H]3CCO[C@H](c4cnn(C5CC5)c4)C3)nc(-c3cc(F)c(F)cc3F)c2nc1C	500 to 3000 nM
Cc1nc2nc([C@@H]3CCO[C@H](c4cnn(C5CC5)n4)C3)nc(-c3ccc(F)cc3F)c2nc1C	50 to 500 nM
Cc1nc2nc([C@H]3CCO[C@@H](c4cnn(C5CC5)c4)C3)nc(-c3ccc(C(F)(F)F)cc3)c2nc1C	< 50 nM
Cc1cnc2c(-c3ccc(F)cc3F)nc(N3C[C@@H](c4cnn(C5CC5)c4)O[C@@H](C)C3)nc2n1	50 to 500 nM
Cc1cnc2c(-c3ccc(F)cc3F)nc(N3C[C@@H](c4cnn(C5CC5)c4)O[C@@H](C)C3)cc2n1	500 to 3000 nM
Cc1nc2nc([C@@H]3C[C@@H](C)O[C@@H](c4cnn(C5CC5)c4)C3)nc(-c3cc(F)c(F)cc3F)c2nc1C	50 to 500 nM
COc1cccc([C@H]2C[C@@H](c3nc(C45CC(C(F)(F)F)(C4)C5)c4nc(C)c(C)nc4n3)CCO2)n1	50 to 500 nM
COc1ncccc1[C@@H]1C[C@H](c2nc(-c3ccc(F)cc3F)c3nc(C)c(C)nc3n2)CCO1	50 to 500 nM
Cc1nc2cc([C@H]3CCO[C@@H](c4cnn(C5CC5)c4)C3)nc(-c3ccc(C(F)(F)F)cc3F)c2nc1C	< 50 nM
Cc1nc2nc(C3CCOC(c4nc(C5CC5)n[nH]4)C3)nc(-c3ccc(F)cc3F)c2nc1C (centres unmarked)	500 to 3000 nM
[2H]C1(n2cc([C@H]3C[C@@H](c4nc(-c5ccc(Cl)cc5F)c5nc(C)c(C)nc5n4)CCO3)cn2)CC1	< 50 nM

* * *

target: human TREM2 (Homo sapiens); construct: expressed in transfected cells; host or cells: HEK293T; test: TREM2 agonist potency by cellular phosphorylation of Syk (AlphaLisa) in HEK293T-hTREM2 cells; type: cell-based; conditions: HEK293 cells expressing human TREM2 and DAP12, Table D-2
pEC50: −log10 of the molar value.
# pEC50 per entry
Quantity: pEC50

Cc1nc2nc(N3C[C@@H](c4cnn(C(F)F)c4)O[C@@H](C4CC4)C3)nc(-c3ccc(C(F)(F)F)cc3F)c2nc1C [Example I-1712]	6.30 to 7.30
Cc1nc2nc([C@H]3CCO[C@@H](c4cnn(C5CC5)c4)C3)nc(-c3ccc(Cl)cc3F)c2nc1OCCF [Example I-1283]	> 7.30
Cc1nc2nc([C@H]3CCO[C@@H](c4cnn(C5CC5)c4)C3)nc(-c3ccc4c(c3)CCC4)c2nc1C (stereo in doubt) [Example I-1170]	> 7.30

* * *

biological target: human TREM2 (Homo sapiens, UniProt Q9NZC2); construct: expressed in transfected cells; host or cells: HEK293T; experiment: TREM2 agonist potency by cellular phosphorylation of Syk (AlphaLisa) in HEK293T-hTREM2 cells; assay type: cell-based; settings: HEK293 cells expressing human TREM2 and DAP12, Table D-2
pEC50: −log10 of the molar value.
# pEC50 per entry
Quantity: pEC50

Cc1cc2c(-c3ccc(F)cc3F)nc(N3C[C@@H](C)O[C@@H](c4cn(C)cn4)C3)nc2nc1C	5.52 to 6.30
Cc1nc2nc(N3C[C@@H](c4cnn(C(F)F)c4)O[C@@H](C4CC4)C3)nc(-c3ccc(F)cc3F)c2nc1C (stereo in doubt)	> 7.30
Cc1nc2nc(N3C[C@@H](C)O[C@@H](c4cnn(C5CC5)c4)C3)cc(-c3ccc(Cl)cc3F)c2nc1C	> 7.30
Cc1nc2nc(-c3cc(-c4cnn(C5CC5)c4)c(=O)n(C)c3)nc(-c3ccc(F)cc3F)c2nc1C	6.30 to 7.30
COCn1cc([C@H]2CN(c3nc(-c4ccc(F)cc4F)c4nc(C)c(C)nc4n3)C[C@@H](C)O2)cn1	> 7.30
Cc1nc2nc(N3C[C@@H](c4cnn(C)c4)O[C@@H](C4CC4)C3)nc(-c3ccc(F)cc3F)c2nc1C	6.30 to 7.30
Cc1nc2nc(N3C[C@@H](C)O[C@@H](c4cnn(CCO)c4)C3)nc(-c3ccc(Cl)cc3F)c2nc1C	> 7.30
Cc1nc2nc([C@H]3CCO[C@@H](c4cnn(C5CC5)c4)C3)nc(-c3ccc(C(F)(F)F)cc3F)c2nc1C(F)F	> 7.30
COc1nc2c(-c3ccc(C(F)(F)F)cc3F)nc([C@H]3CCO[C@@H](c4cnn(C5CC5)c4)C3)nc2nc1C (stereo in doubt)	> 7.30
Fc1cc(Cl)ccc1-c1nc([C@@H]2CCO[C@H](c3cnn(C4CC4)c3)C2)nc2nc(CC(F)(F)F)cnc12	6.30 to 7.30
Cc1nc2nc(N3C[C@@H](C)O[C@@H](c4ccn(C5CC5)n4)C3)nc(-c3ccc(F)cc3F)c2nc1C	6.30 to 7.30
CCc1nc2c(-c3ccc(F)cc3F)nc([C@H]3CCO[C@@H](c4cnn(C5CC5)c4)C3)cc2nc1C	6.30 to 7.30
Cc1cc([C@H]2CN(c3nc(-c4ccc(Cl)cc4F)c4nc(C)c(C)nc4n3)CCO2)no1	6.30 to 7.30

* * *

biological target: human TREM2 (Homo sapiens, UniProt Q9NZC2); construct: expressed in transfected cells; host or cells: HEK293T; assay: TREM2 agonist potency by cellular phosphorylation of Syk (AlphaLisa) in HEK293T-hTREM2 cells; type: cell-based; details: HEK293 cells expressing human TREM2 and DAP12, Table D-2
pEC50: −log10 of the molar value.
# pEC50 per entry
Quantity: pEC50

COc1nc2c(-c3ccc(Cl)cc3F)nc([C@@H]3CCO[C@H](c4cnn(C5CC5)c4)C3)nc2nc1C (racemic) [Example I-1221]	> 7.30
Cc1nc2nc(C3CCO[C@@H](c4cnn(C5CC5)c4)C3)nc(C3CC4(C3)CC(F)(F)C4)c2nc1C (stereo partly shown) [Example I-1582]	> 7.30
Cc1nc2cc([C@H]3CCO[C@@H](c4cnn(C5CC5)c4)C3)nc(-c3ccc(F)cc3F)c2nc1CF [Example I-1456]	> 7.30
CN(C)C(=O)c1nc2c(-c3ccc(F)cc3F)nc(C3CCO[C@@H](c4cnn(C5CC5)c4)C3)nc2nc1C1CC1 (stereo partly shown) [Example I-1603]	5.52 to 6.30

* * *

Target: human TREM2 (Homo sapiens, UniProt Q9NZC2)
Construct: expressed in transfected cells; host or cells: HEK293T
Assay: TREM2 agonist potency by cellular phosphorylation of Syk (AlphaLisa) in HEK293T-hTREM2 cells
Format: cell-based
Conditions: HEK293 cells expressing human TREM2 and DAP12, Table D-2
Procedure: In Vitro Measurement of Triggering Receptor Expressed on Myeloid Cells 2 Activity Using Cellular Phosphorylation of Spleen Tyrosine Kinase (“Syk”) Assays Measurement of TREM2 agonist potency was done using a HEK cell line expressing human TREM2 and DAP12 (HEK293T-hTREM2 cells). Binding of small molecules to, and activation of, TREM2 increases the phosphorylation of Syk. The resultant levels of Syk phosphorylation are measured using a commercial AlphaLisa reagent kit. […]
# EC50 per entry
Quantity: EC50

Cc1nc2nc(N3C[C@@H](C)O[C@@H](c4cnn(C5CC5)c4)C3)nc([C@H]3C[C@H](C(F)(F)F)C3)c2nc1C	< 50 nM
COc1nc2c(-c3ccc(F)cc3F)nc([C@@H]3CCO[C@H](c4cnn(C5CC5)c4)C3)nc2nc1C (racemic)	< 50 nM
COCn1cc([C@H]2CN(c3nc(-c4ccc(F)cc4F)c4cc(C)c(C)nc4n3)C[C@@H](C)O2)cn1	< 50 nM
Cc1nc2nc([C@H]3CCO[C@@H](c4cnn(C5CC5)c4)C3)nc(-c3ccc(C(F)F)cc3F)c2nc1C	< 50 nM

* * *

Molecular target: human TREM2 (Homo sapiens, UniProt Q9NZC2)
Construct: expressed in transfected cells; host or cells: HEK293T
Experiment: TREM2 agonist potency by cellular phosphorylation of Syk (AlphaLisa) in HEK293T-hTREM2 cells
Assay type: cell-based
Settings: HEK293 cells expressing human TREM2 and DAP12, Table D-2
Description: In Vitro Measurement of Triggering Receptor Expressed on Myeloid Cells 2 Activity Using Cellular Phosphorylation of Spleen Tyrosine Kinase (“Syk”) Assays Measurement of TREM2 agonist potency was done using a HEK cell line expressing human TREM2 and DAP12 (HEK293T-hTREM2 cells). Binding of small molecules to, and activation of, TREM2 increases the phosphorylation of Syk. The resultant levels of Syk phosphorylation are measured using a commercial AlphaLisa reagent kit. […]
Quantity: EC50

Cc1nc2nc([C@H]3CCO[C@@H](c4cnn(C56CC(C5)C6)c4)C3)nc(-c3ccc(F)cc3F)c2nc1C	< 50 nM
Cc1nc2cc([C@H]3CCO[C@@H](c4cnn(C5CC5)c4)C3)nc(-c3ccc(F)cc3F)c2nc1COC(F)F	3000 to 100000 nM
COCCn1cc([C@H]2C[C@@H](c3nc(-c4ccc(F)cc4F)c4nc(C)c(C)nc4n3)CCO2)cn1 (stereo in doubt)	50 to 500 nM
Cc1nc2nc([C@H]3CCO[C@@H](c4cnn(C5CC5)c4)C3)nc(-c3ccc(C(C)C)cc3F)c2nc1C	500 to 3000 nM
Cc1nc2cc([C@H]3CCO[C@@H](c4cnn(C5CC5)c4)C3)nc(-c3ccc(F)cc3F)c2nc1COCC1COC1	500 to 3000 nM
Cc1nc2nc(N3C[C@@H](C)O[C@@H](c4cnn(C5CC5)c4)C3)nc([C@H]3C[C@H](OC(F)(F)F)C3)c2nc1C	< 50 nM
Cc1cc(F)c(-c2nc([C@H]3CCO[C@@H](c4cnn(C5CC5)c4)C3)nc3nc(C)c(C)nc23)cc1F	< 50 nM
